System: Cell lines with either the heterozygote V600E BRAF mutation or wild type BRAF genotype
Assay: Cell proliferation IC50 (Cell Titer Glo), summary by genotype
Type: cell-based
Conditions: Homo sapiens; 25 of the 32 cell lines tested (heterozygote V600E or wild type BRAF); read-out: IC50 cell proliferation
Protocol: IC50 Cell proliferation measurements. Cell proliferation was assessed in the 41 tumor cell lines set forth in Table 2 after 4 days of continuous exposure to either the ERK1/2 inhibitor, compound a or the MEK inhibitor compound b (PD0325901) using Promega Cell Titer Glo reagent (Promega Corp, Madison, Wis.). […] This reagent allows a homogeneous method of determining cell number by quantitation of ATP. […] Data was analyzed in Excel using XLfit 4.2, fit model #205 (Dose Response One Site)
pIC50: −log10 of the molar value.
readout.label: pIC50

GET /values?readout=pIC50&system=Cell lines with either the heterozygote V600E BRAF mutation or wild type BRAF genotype&item= O=C(Nc1ccc2[nH]nc(-c3ccncc3)c2c1)C1CCN(CC(=O)N2CCN(c3ccc(-c4ncccn4)cc3)CC2)C1 (stereo not shown) [cpd. a]
< 7.00

====

Test system: SK-Mel-5
Test: Cell proliferation IC50 (Cell Titer Glo)
Assay type: cell-based
Details: Homo sapiens, 96 h; SK-Mel-5, Melanoma, BRAF V600E Heterozygous; 4 days continuous exposure; read-out: IC50 cell proliferation
readout.label: pIC50
By convention, pIC50 is the negative base-10 log of a molar concentration.

If you can, please state the reported pIC50 value of O=C(Nc1ccc2[nH]nc(-c3ccncc3)c2c1)C1CCN(CC(=O)N2CCN(c3ccc(-c4ncccn4)cc3)CC2)C1 (stereo not shown) .
7.18

====

System: WiDr
Experiment: Cell proliferation IC50 (Cell Titer Glo)
Type: cell-based
Conditions: Homo sapiens, 96 h, read-out: IC50 cell proliferation
readout.label: IC50 (nM)
Lab book: enter the figure in nM, no units written.

If you can, please state the reported IC50 value of O=C(NOC[C@H](O)CO)c1ccc(F)c(F)c1Nc1ccc(I)cc1F [cpd. b, PD0325901] .
6

====

System: LOX
Assay: Cell proliferation IC50 (Cell Titer Glo)
Assay type: cell-based
Settings: Homo sapiens, 96 h, Melanoma, BRAF V600E Homozygous, 4 days continuous exposure, read-out: IC50 cell proliferation
readout.label: IC50

GET /values?readout=IC50&system=LOX&item= O=C(Nc1ccc2[nH]nc(-c3ccncc3)c2c1)C1CCN(CC(=O)N2CCN(c3ccc(-c4ncccn4)cc3)CC2)C1 (stereo not shown) [cpd. a]
100 nM

====

Test system: BxPc-3
Experiment: Cell proliferation IC50 (Cell Titer Glo)
Assay type: cell-based
Conditions: Homo sapiens, 96 h; BxPc-3, Pancreas, BRAF V600V Wild type; 4 days continuous exposure; read-out: IC50 cell proliferation
readout.label: IC50
Reply with a number, then the unit it belongs to.

If you can, please state the reported IC50 value of O=C(Nc1ccc2[nH]nc(-c3ccncc3)c2c1)C1CCN(CC(=O)N2CCN(c3ccc(-c4ncccn4)cc3)CC2)C1 (stereo not shown) .
0.184 µM

====

Test system: N-87
Test: Cell proliferation IC50 (Cell Titer Glo)
Assay type: cell-based
Settings: Homo sapiens, 96 h, read-out: IC50 cell proliferation
readout.label: pIC50
By convention, pIC50 is the negative base-10 log of a molar concentration.

If you can, please state the reported pIC50 value of O=C(NOC[C@H](O)CO)c1ccc(F)c(F)c1Nc1ccc(I)cc1F .
7.19
